Attribution: PubChem BioAssay AID1963826

- System: 926638-142-R-J1-PDC complex spheroid viability;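 also: spheroids exposed to drugs for one week before readout; percent viability relative to DMSO vehicle control wells set as 100%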
- protocol: Anticancer human tumor 926638-142-R-J1-PDC patient-derived endometrial carcinoma cell line growth inhibition [POLQ]
- experimental_conditions: second compound 0.316 µM; first compound 1 µM; hits give low values
Define the label as yes (1) when viability, T/C is strictly less than 50% and as no (0) in all remaining cases.

Query: Field: below-cutoff. Rule: recorded viability, T/C strictly less than 50%. Subject: C=CCn1c(=O)c2cnc(Nc3ccc(N4CCN(C)CC4)cc3)nc2n1-c1cccc(C(C)(C)O)n1 + COC1C(OC(N)=O)C(O)C(Oc2ccc3c(O)c(NC(=O)c4ccc(O)c(CC=C(C)C)c4)c(=O)oc3c2C)OC1(C)C
Response: yes (1)

Query: Field: below-cutoff. Rule: recorded viability, T/C strictly less than 50%. Subject: C=CCn1c(=O)c2cnc(Nc3ccc(N4CCN(C)CC4)cc3)nc2n1-c1cccc(C(C)(C)O)n1 + Nc1ccc(C#CCN(C(=O)Cc2ncc(C(F)(F)F)cc2C(F)(F)F)c2ccc(F)cc2)nn1
Response: yes (1)

Query: Field: below-cutoff. Rule: recorded viability, T/C strictly less than 50%. Subject: COc1ccc([C@@H](O)c2cc(-c3ncnc4cc(N5CCOCC5)ccc34)c(F)cc2Cl)nn1 + Cc1cccc(N(C)C(=O)C2C(O)CCN2c2nc(C)cc(C(F)(F)F)c2C#N)c1
Response: yes (1)

Query: Field: below-cutoff. Rule: recorded viability, T/C strictly less than 50%. Subject: CCCS(=O)(=O)Nc1ccc(F)c(C(=O)c2c[nH]c3ncc(-c4ccc(Cl)cc4)cc23)c1F + COC1C(OC(N)=O)C(O)C(Oc2ccc3c(O)c(NC(=O)c4ccc(O)c(CC=C(C)C)c4)c(=O)oc3c2C)OC1(C)C
Response: no (0)

Query: Field: below-cutoff. Rule: recorded viability, T/C strictly less than 50%. Subject: CC1COCCN1c1cc(-c2ccnn2C)c2ccnc(-c3ccn[nH]3)c2n1 (stereo unspecified) + Cc1cccc(N(C)C(=O)C2C(O)CCN2c2nc(C)cc(C(F)(F)F)c2C#N)c1
Response: yes (1)

Query: Field: below-cutoff. Rule: recorded viability, T/C strictly less than 50%. Subject: C#Cc1c(F)ccc2cc(O)cc(-c3ncc4c(N5CC6CCC(C5)N6)nc(OCC56CCCN5CC(F)C6)nc4c3F)c12 (stereo unspecified) + COC1C(OC(N)=O)C(O)C(Oc2ccc3c(O)c(NC(=O)c4ccc(O)c(CC=C(C)C)c4)c(=O)oc3c2C)OC1(C)C
Response: no (0)

---
Query: Field: below-cutoff. Rule: recorded viability, T/C strictly less than 50%. Subject: CNCc1ccc(-c2[nH]c3cc(F)cc4c3c2CCNC4=O)cc1 + COC1C(OC(N)=O)C(O)C(Oc2ccc3c(O)c(NC(=O)c4ccc(O)c(CC=C(C)C)c4)c(=O)oc3c2C)OC1(C)C
Response: no (0)

Query: Field: below-cutoff. Rule: recorded viability, T/C strictly less than 50%. Subject: COc1ccc([C@@H](O)c2cc(-c3ncnc4cc(N5CCOCC5)ccc34)c(F)cc2Cl)nn1 + COC1C(OC(N)=O)C(O)C(Oc2ccc3c(O)c(NC(=O)c4ccc(O)c(CC=C(C)C)c4)c(=O)oc3c2C)OC1(C)C
Response: yes (1)

Query: Field: below-cutoff. Rule: recorded viability, T/C strictly less than 50%. Subject: CCCS(=O)(=O)Nc1ccc(F)c(C(=O)c2c[nH]c3ncc(-c4ccc(Cl)cc4)cc23)c1F + Nc1ccc(C#CCN(C(=O)Cc2ncc(C(F)(F)F)cc2C(F)(F)F)c2ccc(F)cc2)nn1
Response: no (0)

Query: Field: below-cutoff. Rule: recorded viability, T/C strictly less than 50%. Subject: O=c1[nH]cc(F)c(=O)[nH]1 + Nc1ccc(C#CCN(C(=O)Cc2ncc(C(F)(F)F)cc2C(F)(F)F)c2ccc(F)cc2)nn1
Response: no (0)
